- MEASUREMENT DESCRIPTION: Stability of the analytes in rat plasma samples under storage conditions
- Type: physicochemical
- DETAILS: spiked concentration 2 ng/mL, n = 6

COMPOUND: COc1c(O[C@@H]2O[C@H](C(=O)O)[C@@H](O)[C@H](O)[C@H]2O)cc(O)c2c(=O)cc(-c3ccccc3)oc12 [Wogonoside, wogonoside]
Measured, Three freeze-thaw cycles / ng/mL: 1.86
--
COMPOUND: O=c1c(O)c(-c2ccc(O)c(O)c2)oc2cc(O)cc(O)c12 [Quercetin, quercetin]
Measured, Three freeze-thaw cycles / ng/mL: 1.80
--
COMPOUND: COc1ccc(-c2cc(=O)c3c(O)cc(O)cc3o2)cc1 [Acacetin, acacetin]
Measured, Three freeze-thaw cycles / ng/mL: 1.81
--
COMPOUND: COc1c(O)cc2oc(-c3ccc(O)cc3)cc(=O)c2c1O [Hispidulin, hispidulin]
Measured, Three freeze-thaw cycles / ng/mL: 1.77
--
COMPOUND: O=c1cc(-c2ccc(O)cc2)oc2cc(O)c(O)c(O)c12 [Scutellarein, scutellarein]
Measured, Three freeze-thaw cycles / ng/mL: 1.78
--
COMPOUND: O=c1c(O)c(-c2ccc(O)c(O)c2)oc2cc(O[C@@H]3O[C@H](CO)[C@@H](O)[C@H](O)[C@H]3O)cc(O)c12 [Quercetin-7-O-β-D-glucoside, quercetin-7-O-β-D-glucoside]
Measured, Three freeze-thaw cycles / ng/mL: 2.03
--
COMPOUND: O=c1cc(-c2ccc(O)cc2)oc2cc(O)cc(O)c12 [Apigenin, apigenin]
Measured, Three freeze-thaw cycles / ng/mL: 2.07

* * *

- MEASUREMENT DESCRIPTION: Stability of the analytes in rat plasma samples under storage conditions
- Type: physicochemical
- DETAILS: spiked concentration 400 ng/mL, n = 6

COMPOUND: O=c1cc(-c2ccccc2)oc2cc(O[C@@H]3O[C@H](CO)[C@@H](O)[C@H](O)[C@H]3O)c(O)c(O)c12
Measured, Autosampler for 12 h: 419.46 ± 28.69 ng/mL

COMPOUND: O=c1cc(-c2ccccc2)oc2cc(O[C@@H]3O[C@H](CO[C@@H]4O[C@H](CO)[C@@H](O)[C@H](O)[C@H]4O)[C@@H](O)[C@H](O)[C@H]3O)c(O)c(O)c12
Measured, Autosampler for 12 h: 436.20 ± 27.56 ng/mL

COMPOUND: O=c1cc(-c2ccccc2)oc2cc(O)c(O)c(O)c12
Measured, Autosampler for 12 h: 393.06 ± 21.11 ng/mL

COMPOUND: O=C(O)[C@H]1O[C@@H](Oc2cc(O)c3c(=O)cc(-c4ccccc4)oc3c2)[C@H](O)[C@@H](O)[C@@H]1O [Chrysin-7-O-β-D-glucuronide, chrysin-7-O-β-D-glucuronide]
Measured, Autosampler for 12 h: 419.16 ± 29.59 ng/mL

* * *

# Measured, Autosampler for 12 h per record follows
- MEASUREMENT DESCRIPTION: Stability of the analytes in rat plasma samples under storage conditions
- Type: physicochemical
- DETAILS: spiked concentration 20 ng/mL, n = 6

MOLECULE: COc1c(O[C@@H]2O[C@H](C(=O)O)[C@@H](O)[C@H](O)[C@H]2O)cc(O)c2c(=O)cc(-c3ccccc3)oc12 [Wogonoside, wogonoside]
Measured, Autosampler for 12 h / ng/mL: 22.77
--
MOLECULE: COc1ccc(-c2cc(=O)c3c(O)cc(O)cc3o2)cc1
Measured, Autosampler for 12 h / ng/mL: 22.01
--
MOLECULE: O=c1c(O)c(-c2ccc(O)c(O)c2)oc2cc(O)cc(O)c12
Measured, Autosampler for 12 h / ng/mL: 17.83
--
MOLECULE: O=c1cc(-c2ccc(O)cc2)oc2cc(O)cc(O)c12
Measured, Autosampler for 12 h / ng/mL: 20.39
--
MOLECULE: O=c1c(O)c(-c2ccc(O)c(O)c2)oc2cc(O[C@@H]3O[C@H](CO)[C@@H](O)[C@H](O)[C@H]3O)cc(O)c12 [Quercetin-7-O-β-D-glucoside, quercetin-7-O-β-D-glucoside]
Measured, Autosampler for 12 h / ng/mL: 19.79
--
MOLECULE: O=c1cc(-c2ccc(O)cc2)oc2cc(O)c(O)c(O)c12
Measured, Autosampler for 12 h / ng/mL: 19.68
--
MOLECULE: COc1c(O)cc2oc(-c3ccc(O)cc3)cc(=O)c2c1O
Measured, Autosampler for 12 h / ng/mL: 21.61

* * *

- MEASUREMENT DESCRIPTION: Stability of the analytes in rat plasma samples under storage conditions
- Assay type: physicochemical
- DETAILS: spiked concentration 400 ng/mL, n = 6

COMPOUND: O=c1cc(-c2ccccc2)oc2cc(O)c(O)c(O)c12
Measured, -80°C for 7 days / ng/mL: 409.67
--
COMPOUND: O=C(O)[C@H]1O[C@@H](Oc2cc(O)c3c(=O)cc(-c4ccccc4)oc3c2)[C@H](O)[C@@H](O)[C@@H]1O [Chrysin-7-O-β-D-glucuronide, chrysin-7-O-β-D-glucuronide]
Measured, -80°C for 7 days / ng/mL: 409.88
--
COMPOUND: O=c1cc(-c2ccccc2)oc2cc(O[C@@H]3O[C@H](CO[C@@H]4O[C@H](CO)[C@@H](O)[C@H](O)[C@H]4O)[C@@H](O)[C@H](O)[C@H]3O)c(O)c(O)c12
Measured, -80°C for 7 days / ng/mL: 393.06
--
COMPOUND: O=c1cc(-c2ccccc2)oc2cc(O[C@@H]3O[C@H](CO)[C@@H](O)[C@H](O)[C@H]3O)c(O)c(O)c12
Measured, -80°C for 7 days / ng/mL: 385.78

* * *

- MEASUREMENT DESCRIPTION: Pharmacokinetic study in rats after oral administration of OS extract (UHPLC-QqQ-MS/MS of plasma)
- Assay type: in vivo, rat
- DETAILS: male, SD, 3 g/kg; rat plasma collected 0.5 h after oral administration of the OS extract; read-out: Concentration printed in MRM chromatogram of plasma sample (Figure 2C)
MEASUREMENT LABEL: concentration at 0.5 h

MOLECULE: O=c1cc(-c2ccccc2)oc2cc(O[C@@H]3O[C@H](CO[C@@H]4O[C@H](CO)[C@@H](O)[C@H](O)[C@H]4O)[C@@H](O)[C@H](O)[C@H]3O)c(O)c(O)c12 [Oroxin B, oroxin B]
MEASURED: 1130 ng/mL
--
MOLECULE: O=c1c(O)c(-c2ccc(O)c(O)c2)oc2cc(O)cc(O)c12 [Quercetin, quercetin]
MEASURED: 26 ng/mL
--
MOLECULE: COc1c(O[C@@H]2O[C@H](C(=O)O)[C@@H](O)[C@H](O)[C@H]2O)cc(O)c2c(=O)cc(-c3ccccc3)oc12 [Wogonoside, wogonoside]
MEASURED: 11 ng/mL
--
MOLECULE: O=C(O)[C@H]1O[C@@H](Oc2cc3oc(-c4ccccc4)cc(=O)c3c(O)c2O)[C@H](O)[C@@H](O)[C@@H]1O [Baicalin, baicalin]
MEASURED: 10400 ng/mL
--
MOLECULE: O=c1c(O)c(-c2ccc(O)c(O)c2)oc2cc(O[C@@H]3O[C@H](CO)[C@@H](O)[C@H](O)[C@H]3O)cc(O)c12 [Quercetin-7-O-β-D-glucoside, quercetin-7-O-β-D-glucoside]
MEASURED: 8 ng/mL
--
MOLECULE: O=c1cc(-c2ccccc2)oc2cc(O[C@@H]3O[C@H](CO)[C@@H](O)[C@H](O)[C@H]3O)c(O)c(O)c12 [Oroxin A, oroxin A]
MEASURED: 1300 ng/mL

* * *

# concentration at 0.5 h per record follows
- MEASUREMENT DESCRIPTION: Pharmacokinetic study in rats after oral administration of OS extract (UHPLC-QqQ-MS/MS of plasma)
- Type: in vivo, rat
- DETAILS: male, SD, 3 g/kg; rat plasma collected 0.5 h after oral administration of the OS extract; read-out: Concentration printed in MRM chromatogram of plasma sample (Figure 2C)
- Procedure: The UHPLC-QqQ-MS/MS system consisted of a 1290 UHPLC and a 6470 mass spectrometer (Agilent Technologies). Chromatographic separation was realized on utilizing an ACQUITY UPLC BEH C18 column (2.1 × 100 mm, 1.7 μm) maintained at 35 °C. […]

MOLECULE: O=c1cc(-c2ccc(O)cc2)oc2cc(O)c(O)c(O)c12 [Scutellarein, scutellarein]
concentration at 0.5 h [ng/mL]: 14

MOLECULE: O=C(O)[C@H]1O[C@@H](Oc2cc(O)c3c(=O)cc(-c4ccccc4)oc3c2)[C@H](O)[C@@H](O)[C@@H]1O [Chrysin-7-O-β-D-glucuronide, chrysin-7-O-β-D-glucuronide]
concentration at 0.5 h [ng/mL]: 879

MOLECULE: O=c1cc(-c2ccccc2)oc2cc(O)c(O)c(O)c12 [Baicalein, baicalein]
concentration at 0.5 h [ng/mL]: 400

MOLECULE: COc1c(O[C@@H]2O[C@H](C(=O)O)[C@@H](O)[C@H](O)[C@H]2O)cc2oc(-c3ccccc3)cc(=O)c2c1O [Oroxylin A-7-O-β-D-glucuronide, oroxylin A-7-O-β-D-glucuronide]
concentration at 0.5 h [ng/mL]: 61

MOLECULE: COc1ccc(-c2cc(=O)c3c(O)cc(O)cc3o2)cc1 [Acacetin, acacetin]
concentration at 0.5 h [ng/mL]: 8

Ref: paper PMC12589998
